Hey, just so you know, these numbers are from the supplement of paper PMC8728848.

Target: GlcNAc(b1-3)[GlcNAc(b1-6)]GalNAc
Assay: glycan array binding signal (z-score within array); higher = stronger binding
Conditions: glycan notation: IUPAC condensed, linker removed
Many of the other results were omitted from the sample, so the strongest signals are more common in it than they were.

binder | glycan array binding signal (z-score)
SalT (Orysata sativa) (protein) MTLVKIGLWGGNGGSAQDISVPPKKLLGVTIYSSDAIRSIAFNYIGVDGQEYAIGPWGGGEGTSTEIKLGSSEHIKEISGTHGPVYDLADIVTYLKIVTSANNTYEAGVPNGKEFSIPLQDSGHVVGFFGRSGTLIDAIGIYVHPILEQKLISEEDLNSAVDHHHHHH | -0.309
CLL-1 (Homo sapiens) (protein) MWIDFFTYSSMSEEVTYADLQFQNSSEMEKIPEIGKFGEKAPPAPSHVWRPAALFLTLLCLLLLIGLGVLASMFHVTLKIEMKKMNKLQNISEELQRNISLQLMSNMNISNKIRNLSTTLQTIATKLCRELYSKEQEHKCKPCPRRWIWHKDSCYFLSDDVQTWQESKMACAAQNASLLKINNKNALEFIKSQSRSYDYWLGLSPEEDSTRGMRVDNIINSSAWVIRNAPDLNNMYCGYINRLYVQYYHCTYKKRMICEKMANPVQLGSTYFREA | -0.19
rCnSL-proB (Clitocybe nebularis) (protein) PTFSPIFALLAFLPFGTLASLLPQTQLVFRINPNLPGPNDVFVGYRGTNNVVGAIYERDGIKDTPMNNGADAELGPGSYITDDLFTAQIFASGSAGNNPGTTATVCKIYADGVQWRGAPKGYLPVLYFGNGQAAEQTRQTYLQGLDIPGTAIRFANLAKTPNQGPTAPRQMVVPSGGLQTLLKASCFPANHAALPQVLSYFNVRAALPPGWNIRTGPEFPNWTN | -0.668
Gal 1 (Mus musculus), P16045 (protein) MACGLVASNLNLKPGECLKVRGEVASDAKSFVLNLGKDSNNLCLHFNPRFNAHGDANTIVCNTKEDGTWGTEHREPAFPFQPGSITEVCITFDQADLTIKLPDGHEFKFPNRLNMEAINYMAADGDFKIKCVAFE | -0.292
BDCA2 ex-domain (Homo sapiens) (protein) MASHHHHHHIEGRGLNDIFEAQKIEWHESLVPRGSCPTPWTSFQSSCYFISTGMQSWTKSQKNCSVMGADLVVINTREEQDFIIQNLKRNSSYFLGLSDPGGRRHWQWVDQTPYNENVTFWHSGEPNNLDERCAIINFRSSEEWGWNDIHCHVPQKSICKMKKIY | -0.347
XCL (Xerocomus chrysenteron) (protein) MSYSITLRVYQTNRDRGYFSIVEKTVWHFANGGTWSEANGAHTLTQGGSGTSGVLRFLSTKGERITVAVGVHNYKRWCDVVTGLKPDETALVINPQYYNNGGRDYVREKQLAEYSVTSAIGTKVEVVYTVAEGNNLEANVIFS | 0.896
